System: Meloidogyne incognita
TEST: Meloidogyne incognita test (lettuce, gall formation)
Format: in vivo
CONDITION SET: application rate 20 ppm, after 14 days, 100% = no galls found
Catalogue of molecules with associated nematicidal efficacy in % (formation of galls)
ENDPOINT: nematicidal efficacy in % (formation of galls) (%)

INSERT INTO assay_data (molecule, result_units, number) VALUES
  ('CCS(=O)(=O)c1c(-c2nc3cc4c(cc3[nH]2)OC(F)(F)C(F)(F)O4)nc(C2CC2)n1C', '%', 90),
  ('CCS(=N)(=O)c1c(-c2nc3cc4c(cc3n2C)OC(F)(F)C(F)(F)O4)nc(-c2ccc(C(F)(F)F)cc2)n1C (stereo not drawn)', '%', 90),
  ('CCS(=O)(=O)c1c(-c2nc3cc4c(cc3n2C)OC(F)(F)C(F)(F)O4)nc(-c2ccc(Cl)cc2)n1C', '%', 90),
  ('CCS(=O)(=O)c1c(-c2nc3cc4c(cc3n2C)OC(F)(F)C(F)(F)O4)nc(-c2ccc(C3(C#N)CC3)cc2)n1C', '%', 100),
  ('CCS(=N)(=O)c1c(-c2nc3cc4c(cc3n2C)OC(F)(F)C(F)(F)O4)nc(-c2ccc(F)cc2)n1C (stereo not drawn)', '%', 100),
  ('CCS(=N)(=O)c1c(-c2nc3cc4c(cc3n2C)OC(F)(F)C(F)(F)O4)nc(-c2ccc(Cl)cc2)n1C (racemic)', '%', 90);
